B1: TRIM55 (parent)
chain: FQMEKIEHGYENMNHFTVNLNREE

variants of: B1; assay: protein stability index of a GFP-peptide fusion (GPS, HEK-293T) (PSI 1-6); higher = more stable; conditions: c terminus: a fixed tail appended;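 note: lentivirally expressed fusions sorted by FACS into six bins by GFP to DsRed ratio, PSI derived from sequencing read proportions per bin multiplied by bin number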
measurement.name: protein stability index

>>> print(df.to_string())
    mutation_string  observed_result
 0             E23R             1.88
 1             Y10K             2.82
 2             T17I             2.06
 3             F16T             4.36
 4             E11Y             2.08
 5              K5P             3.55
 6             E11D             2.55
 7             H15M             1.95
 8              E4P             2.58
 9             R22F             1.98
10             N19F             2.29
11             N12M             1.99
12              H8W                2
13             H15P              1.5
14             N12W             1.83
15              K5L              2.6
16             Y10W             2.42
17             E24F             1.77
18              E4R             2.19
19              K5C             3.14
20             N14V             2.15
21             E24Y             1.57
22             H15N             3.77
23              K5V             2.49
24             F16M             3.87
25              F1T             4.67
26             E11T             2.42
27             N19I             2.05
28             N19S             2.16
29              G9W             3.05
30             V18R             3.73
31             T17A             2.59
32              K5E              4.2
33             N14D             3.45
34              F1M             4.27
35              K5S             3.43
36             F16L             4.21
37             E23H             1.77
38              K5Q             3.51
39              E4Q             2.42
40             M13E             3.67
41             M13I             2.52
42             E24D             2.77
43             N14G             3.21
44             N21S             3.08
45             H15L              1.8
46             Y10T              3.1
47              E7I             2.42
48              M3F             2.86

Recorded values, source the supplement of paper PMC10567573.
